Recorded values, source patent US20240116985A1.

# PROTOCOL DESCRIPTION: CHI Log D procedure
# Type: physicochemical
# SETTINGS: pH 7.4
ASSAY METRIC: CHI Log D
In your answer, state the number alone without any accompanying words.

# example entries with known answers
COMPOUND | CHI Log D
CC(=O)N1CCC[C@]12CC=CCCCC1(CCCC=CCCCCCC[C@@](C)(C(=O)N[C@@H](Cc3cccc(F)c3)C(=O)N[C@@H](Cc3c[nH]c4ccccc34)C(=O)N[C@@H](CCC(N)=O)C(N)=O)NC(=O)[C@H](CCC(N)=O)NC(=O)[C@H](Cc3ccsc3)NC(=O)[C@H](C)NC(=O)[C@H](C)NC(=O)[C@H](CCC(=O)O)NC(=O)[C@H](CC(=O)O)NC1=O)NC(=O)[C@H](C)NC(=O)[C@H](CC(=O)O)NC2=O (stereo partly drawn) [I-452] | 1.917
CCN(CC(=O)O)C[C@@H]1NC(=O)[C@H](CC(=O)O)NC(=O)C2(CCCC=CCCCOC(=O)N3CC[C@@](C(=O)N[C@@H](Cc4ccsc4)C(=O)N[C@@H](Cc4csc5ccccc45)C(=O)N[C@@H](CCC(N)=O)C(N)=O)(C3)NC(=O)[C@H](CO)NC(=O)[C@H](Cc3ccccc3)NC(=O)[C@H](C)NC(=O)[C@H](C)NC1=O)CCCC=CC[C@]1(CCCN1C(C)=O)C(=O)N[C@@H](CC(=O)O)C(=O)N[C@@H](CC(C)(C)C)C(=O)N2 (stereo partly drawn) [I-967] | 1.884

Now for the compound whose CHI Log D we want.
Find the recorded CHI Log D belonging to CC(=O)N1CCC[C@]12CC=CCCCC1(CCCC=CCCCCCC[C@@](C)(C(=O)N[C@@H](Cc3ccccc3)C(=O)N[C@@H](Cc3csc4ccccc34)C(=O)N(C)[C@@H](CO)C(N)=O)NC(=O)[C@H](CC(N)=O)NC(=O)[C@H](Cc3ccccc3)NC(=O)[C@H](C)NC(=O)[C@H](C)NC(=O)[C@H](CCC(=O)O)NC(=O)[C@H](CC(=O)O)NC1=O)NC(=O)[C@H](CC(C)C)NC(=O)[C@H](CC(=O)O)NC2=O (stereo partly drawn) [I-759] and report it.
2.582

###

# PROTOCOL DESCRIPTION: CHI Log D procedure
# Format: physicochemical
# SETTINGS: pH 7.4
ASSAY METRIC: CHI Log D

As a guide, the following entries are already answered.
MOLECULE | CHI Log D
CC(=O)N[C@@H](Cc1ccccc1)C(=O)N[C@@H](CC(=O)O)C(=O)N[C@@H](C)C(=O)N[C@]1(C)CCCCCCC=CCOC(=O)N2CC[C@@](C(=O)N[C@@H](Cc3ccccc3)C(=O)N[C@@H](Cc3c[nH]c4ccccc34)C(=O)N[C@@H](CCC(N)=O)C(N)=O)(C2)NC(=O)[C@H](C(C)C)NC(=O)[C@H](Cc2ccccc2)NC(=O)[C@H](C)NC(=O)[C@H](C)NC(=O)[C@@](C)(Cc2ccccc2)NC(=O)[C@H](CC(=O)O)NC1=O (single isomer, unassigned) | 2.152
CC(=O)N1CCC[C@]12CC=CCCCC1(CCCC=CCCCCCC[C@@](C)(C(=O)N[C@@H](Cc3ccsc3)C(=O)N[C@@H](Cc3csc4ccccc34)C(N)=O)NC(=O)[C@H](CC(N)=O)NC(=O)[C@H](Cc3ccccc3)NC(=O)[C@H](C)NC(=O)[C@H](C)NC(=O)[C@H](CCC(=O)O)NC(=O)[C@H](CC(=O)O)NC1=O)NC(=O)[C@H](CC(C)C)NC(=O)[C@H](CC(=O)O)NC2=O (stereo partly drawn) [I-717] | 2.694
CC(=O)N1CCC[C@]12CC=CCCCC1(CCCC=CCCCOC(=O)N3CC[C@@](C(=O)N[C@@H](Cc4ccsc4)C(=O)N[C@@H](Cc4csc5ccccc45)C(=O)N[C@@H](Cc4c[nH]cn4)C(N)=O)(C3)NC(=O)[C@H](CCC(N)=O)NC(=O)[C@H](Cc3ccccc3)NC(=O)[C@H](C)NC(=O)[C@H](C)NC(=O)[C@H](CC(=O)O)NC(=O)[C@H](CC(=O)O)NC1=O)NC(=O)[C@H](CC(C)(C)C)NC(=O)[C@H](CC(=O)O)NC2=O (stereo partly drawn) [I-771] | 2.031
CC(=O)NC(C)(C)C(=O)N[C@@H](CC(=O)O)C(=O)N[C@@H](C)C(=O)N[C@]1(C)CCCCCCC=CCOC(=O)N2CC[C@@](C(=O)N[C@@H](Cc3ccccc3)C(=O)N[C@@H](Cc3c[nH]c4ccccc34)C(=O)N[C@@H](CCC(N)=O)C(N)=O)(C2)NC(=O)[C@H](C(C)C)NC(=O)[C@H](Cc2ccccc2)NC(=O)[C@H](C)NC(=O)[C@H](C)NC(=O)[C@H](CCC(=O)O)NC(=O)[C@H](CC(=O)O)NC1=O [I-157] | 1.202
CC[C@H](C)[C@@H]1NC(=O)[C@H](CC(=O)O)NC(=O)[C@]2(CC=CCCCC3(CCCC=CCCCCCC[C@@](C)(C(=O)N[C@@H](Cc4ccccc4)C(=O)N[C@@H](Cc4csc5ccccc45)C(=O)N[C@@H](CCC(N)=O)C(N)=O)NC(=O)[C@H](CCC(N)=O)NC(=O)[C@H](Cc4ccccc4)NC(=O)[C@H](C)NC(=O)[C@H](CCCCNC(=O)CN=[N+]=[N-])NC(=O)[C@H](CCC(=O)O)NC(=O)[C@H](CC(=O)O)NC3=O)NC1=O)CCCN2C(C)=O (stereo partly drawn) [I-592] | 2.414

Report CHI Log D for CCN(CC(=O)O)C[C@@H]1NC(=O)[C@H](CC(=O)O)NC(=O)C2(CCCC=CCCCOC(=O)N3CC[C@@](C(=O)N[C@@H](Cc4ccsc4)C(=O)N[C@@H](Cc4csc5ccccc45)C(=O)N[C@@H](CCC(N)=O)C(N)=O)(C3)NC(=O)[C@H](Cc3ccccc3)NC(=O)[C@H](Cc3ccccc3)NC(=O)[C@H](C)NC(=O)[C@H](C)NC1=O)CCCC=CC[C@]1(CCCN1C(C)=O)C(=O)N[C@@H](CC(=O)O)C(=O)N[C@@H](CC(C)(C)C)C(=O)N2 (stereo partly drawn) [I-970] please.
1.853

Requested read-out: CHI Log D. Entry: CC(=O)N[C@@H](Cc1ccccc1)C(=O)N[C@@H](CC(=O)O)C(=O)N[C@@H](C)C(=O)N[C@]1(C)CCCCCCC=CCOC(=O)N2CC[C@@](C(=O)N[C@@H](Cc3ccccc3)C(=O)N[C@@H](Cc3c[nH]c4ccccc34)C(=O)N[C@@H](CCC(N)=O)C(N)=O)(C2)NC(=O)[C@H](C(C)C)NC(=O)[C@H](Cc2ccccc2)NC(=O)[C@H](C)NC(=O)[C@H](C)NC(=O)[C@H](CCC(C)C)NC(=O)[C@H](CC(=O)O)NC1=O (single isomer, unassigned)
2.108

Find the recorded CHI Log D belonging to CC(=O)N1CCC[C@]12CC=CCCCC1(CCCC=CCCCCCC[C@@](C)(C(=O)N[C@@H](Cc3ccsc3)C(=O)N[C@@H](Cc3csc4ccccc34)C(N)=O)NC(=O)[C@H](CC(N)=O)NC(=O)[C@H](Cc3ccccc3)NC(=O)[C@H](C)NC(=O)[C@H](C)NC(=O)[C@H](CCC(=O)O)NC(=O)[C@H](CC(=O)O)NC1=O)NC(=O)[C@H](CC(C)(C)C)NC(=O)[C@H](CC(=O)O)NC2=O (stereo partly drawn) [I-719] and report it.
2.818

Requested read-out: CHI Log D. Entry: CC(=O)N1CCC[C@]12CC=CCCCC1(CCCC=CCCCCCC[C@@](C)(C(=O)N[C@@H](Cc3ccccc3Cl)C(=O)N[C@@H](Cc3csc4ccccc34)C(=O)N[C@@H](C(N)=O)[C@H](C)O)NC(=O)[C@H]([C@@H](C)O)NC(=O)[C@H](Cc3ccccc3)NC(=O)[C@H](C)NC(=O)[C@H](C)NC(=O)[C@H](CCC(=O)O)NC(=O)[C@H](CC(=O)O)NC1=O)NC(=O)[C@H](CC(C)(C)C)NC(=O)[C@H](CC(=O)O)NC2=O (stereo partly drawn) [I-1093]
3.22

###

# TARGET OR TEST SYSTEM: beta-catenin/TCF4 engagement (Homo sapiens)
# Construct: expressed in transfected cells; host or cells: HEK293
# Sequence (P35222 whole entry): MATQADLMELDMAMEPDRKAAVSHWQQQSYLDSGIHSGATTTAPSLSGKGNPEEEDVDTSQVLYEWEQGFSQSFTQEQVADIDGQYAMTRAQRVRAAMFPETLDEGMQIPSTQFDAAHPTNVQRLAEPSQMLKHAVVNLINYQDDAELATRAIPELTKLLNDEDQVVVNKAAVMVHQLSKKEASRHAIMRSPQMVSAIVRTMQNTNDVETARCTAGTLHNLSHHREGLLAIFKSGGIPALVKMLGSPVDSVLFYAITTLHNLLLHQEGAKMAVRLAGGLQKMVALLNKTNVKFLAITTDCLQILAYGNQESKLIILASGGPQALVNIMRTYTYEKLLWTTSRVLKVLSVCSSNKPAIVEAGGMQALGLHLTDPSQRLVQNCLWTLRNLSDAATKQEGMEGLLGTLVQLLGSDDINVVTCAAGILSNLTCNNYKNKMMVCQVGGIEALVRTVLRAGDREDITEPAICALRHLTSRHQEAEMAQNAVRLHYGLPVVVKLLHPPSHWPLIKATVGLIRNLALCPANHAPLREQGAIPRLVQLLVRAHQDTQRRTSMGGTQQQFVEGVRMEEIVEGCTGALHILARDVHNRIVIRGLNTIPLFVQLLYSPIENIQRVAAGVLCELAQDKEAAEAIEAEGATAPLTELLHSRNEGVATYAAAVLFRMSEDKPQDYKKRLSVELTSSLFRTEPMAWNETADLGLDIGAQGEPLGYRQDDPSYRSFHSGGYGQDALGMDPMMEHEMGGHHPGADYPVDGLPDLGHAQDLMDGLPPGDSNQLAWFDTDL
# PROTOCOL DESCRIPTION: Nano-BRET target engagement assay (B-cat-Halo & TCF4-Luc in HEK293 cells)
# Format: cell-based
# SETTINGS: absolute IC50; read-out: NanoBRET Abs IC50
Measured IC50 of individual entries

# example entries with known answers
COMPOUND | TARGET OR TEST SYSTEM | IC50
CC(=O)N1CCC[C@]12CC=CCCCC1(CCCC=CCCCOC(=O)N3CC[C@@](C(=O)N[C@@H](Cc4ccsc4)C(=O)N[C@@H](Cc4csc5ccccc45)C(=O)N[C@@H](CCC(N)=O)C(N)=O)(C3)NC(=O)[C@H](CC(N)=O)NC(=O)[C@H](Cc3ccccc3)NC(=O)[C@H](C)NC(=O)[C@H](C)NC(=O)[C@H](CC(N)=O)NC(=O)[C@H](CC(N)=O)NC1=O)NC(=O)[C@H](C)NC(=O)[C@H](CC(=O)O)NC2=O (stereo partly drawn) | beta-catenin/TCF4 engagement (Homo sapiens) | > 20 µM
CC(=O)N1CCC[C@]12CC=CCCCC1(CCCC=CCCCOC(=O)N3CC[C@@](C(=O)N[C@@H](Cc4ccsc4)C(=O)N[C@@H](Cc4csc5ccccc45)C(=O)N[C@@H](CC(=O)N(C)C)C(N)=O)(C3)NC(=O)[C@H](CC(N)=O)NC(=O)[C@H](Cc3ccccc3)NC(=O)[C@H](C)NC(=O)C(C)(C)NC(=O)[C@H]([C@@H](C)O)NC(=O)[C@H](CC(N)=O)NC1=O)NC(=O)[C@H](CC(C)(C)C)NC(=O)[C@H](CC(=O)O)NC2=O (stereo partly drawn) | beta-catenin/TCF4 engagement (Homo sapiens) | > 20 µM

Okay, next one:
Param readout= IC50; system= beta-catenin/TCF4 engagement (Homo sapiens); entry= CC(=O)N1CCC[C@]12CC=CCCCC1(CCCC=CCCCOC(=O)N3CC[C@@](C(=O)N[C@@H](Cc4ccccc4Cl)C(=O)N[C@@H](Cc4csc5ccccc45)C(=O)N[C@@H](CCC(N)=O)C(N)=O)(C3)NC(=O)[C@H](CC(N)=O)NC(=O)[C@H](Cc3ccccc3)NC(=O)[C@H](CCCCN)NC(=O)[C@H](C)NC(=O)[C@H](CN(CC(=O)O)CC(F)(F)F)NC(=O)[C@H](CC(=O)O)NC1=O)NC(=O)[C@H](CC(C)(C)C)NC(=O)[C@H](CC(=O)O)NC2=O (stereo partly drawn) ; returns value.
> 20 µM
